# Test system: Fer (mouse);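 note: 11-residue human phosphosite peptides and single-mutation variants displayed on the E. coli surface, counted by deep sequencing, each peptide's frequency after selection divided by its frequency in the unselected input library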;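 note: frequency after pTyr selection over input frequency; kinase dosed for 20-30% of maximal phosphorylation in three min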
# ASSAY METHOD TEXT: phosphorylation enrichment, bacterial display (enrichment ratio); higher = better substrate or ligand; peptides without Tyr show the background
Criterion: phosphorylation enrichment meeting or surpassing 0.6. Met: Fulfilled. Not met: Not fulfilled.

Quick check: does FDGGCYEQLFV [MC4R_Y41_S36Y_YF] have phosphorylation enrichment greater than or equal to 0.6?
Fulfilled

Quick check: does TTPAVYARVTK [CTRB2_Y246_A250T] have phosphorylation enrichment greater than or equal to 0.6?
Not fulfilled

Quick check: does CTTNHYNYMCN [TP53_Y234_I232N] have phosphorylation enrichment greater than or equal to 0.6?
Not fulfilled

Quick check: does MGSFNYLGFAW [SPTLC2_Y178_R183W_YF] have phosphorylation enrichment greater than or equal to 0.6?
Not fulfilled

Quick check: does YRDMDYRSYPH [RBM10_Y41_R46H] have phosphorylation enrichment greater than or equal to 0.6?
Not fulfilled

Quick check: does SSMNDYNPLEK [MYOC_Y479_I477N] have phosphorylation enrichment greater than or equal to 0.6?
Not fulfilled

Quick check: does KGEDFYCVTFH [FHL1_Y149_C153Y_YF] have phosphorylation enrichment greater than or equal to 0.6?
Fulfilled

Quick check: does KKGMIYGGGGG [PSME1_Y249_T244K] have phosphorylation enrichment greater than or equal to 0.6?
Not fulfilled

Quick check: does EQLRAYLEGTC [HLA-C_Y183] have phosphorylation enrichment greater than or equal to 0.6?
Not fulfilled

Quick check: does YTGDIYSNSNL [LZTR1_Y141] have phosphorylation enrichment greater than or equal to 0.6?
Fulfilled

Quick check: does VFPATYHPDHW [EFCAB12_Y544_YF] have phosphorylation enrichment greater than or equal to 0.6?
Not fulfilled

Quick check: does SREDIYKRNIE [PDE4DIP_Y45] have phosphorylation enrichment greater than or equal to 0.6?
Not fulfilled

Quick check: does QTEAEYRFIYM [PTPN11_Y511_Q510E] have phosphorylation enrichment greater than or equal to 0.6?
Fulfilled

Quick check: does CSDPSYVKQME [CDC5L_Y464_Y459C] have phosphorylation enrichment greater than or equal to 0.6?
Fulfilled

Quick check: does TNFPLYLRSLE [MTM1_Y71_R69P_YF] have phosphorylation enrichment greater than or equal to 0.6?
Not fulfilled

Quick check: does ARLEYCENEKK [IRS1_Y47_Y47C] have phosphorylation enrichment greater than or equal to 0.6?
Not fulfilled

Quick check: does TRSYDYTEGGD [FGF7_Y58_M59T] have phosphorylation enrichment greater than or equal to 0.6?
Not fulfilled

Quick check: does HQIQSYTCEID [DES_Y331] have phosphorylation enrichment greater than or equal to 0.6?
Not fulfilled

Quick check: does DKEKWYPLGTS [PIK3C2G_Y1438_N1442T] have phosphorylation enrichment greater than or equal to 0.6?
Not fulfilled

Quick check: does SFSGEYGGGGG [ZG16_Y30_YF] have phosphorylation enrichment greater than or equal to 0.6?
Not fulfilled

Quick check: does IMNLLYHVVGW [GBA_Y412_T408M] have phosphorylation enrichment greater than or equal to 0.6?
Fulfilled

Quick check: does KYACSYTPVKA [FLNB_Y708_T703K] have phosphorylation enrichment greater than or equal to 0.6?
Not fulfilled

Quick check: does FSTPPYLLEAA [BRIP1_Y921_S919P_YF] have phosphorylation enrichment greater than or equal to 0.6?
Not fulfilled

Quick check: does RHFVFYFSFLL [PTEN_Y177_R173H_YF] have phosphorylation enrichment greater than or equal to 0.6?
Not fulfilled

Quick check: does SETSRYLSDLF [KCNJ3_Y67] have phosphorylation enrichment greater than or equal to 0.6?
Not fulfilled

Quick check: does PHIKTYMRPSP [TDP1_Y497] have phosphorylation enrichment greater than or equal to 0.6?
Not fulfilled

Quick check: does DFLSSYSAVKQ [OAT_Y85_N89K] have phosphorylation enrichment greater than or equal to 0.6?
Fulfilled

Quick check: does TPGPNYRPGYN [USH2A_Y463] have phosphorylation enrichment greater than or equal to 0.6?
Not fulfilled

Quick check: does EAAFVYAISSA [WNT4_Y113] have phosphorylation enrichment greater than or equal to 0.6?
Fulfilled
